Just for reference, patent US20230192890A1 is where these values come from.

- TARGET_DESC: full-length recombinant mouse PAD4 (mouse) (UniProt Q9Z183)
- Sequence (Q9Z183 whole entry): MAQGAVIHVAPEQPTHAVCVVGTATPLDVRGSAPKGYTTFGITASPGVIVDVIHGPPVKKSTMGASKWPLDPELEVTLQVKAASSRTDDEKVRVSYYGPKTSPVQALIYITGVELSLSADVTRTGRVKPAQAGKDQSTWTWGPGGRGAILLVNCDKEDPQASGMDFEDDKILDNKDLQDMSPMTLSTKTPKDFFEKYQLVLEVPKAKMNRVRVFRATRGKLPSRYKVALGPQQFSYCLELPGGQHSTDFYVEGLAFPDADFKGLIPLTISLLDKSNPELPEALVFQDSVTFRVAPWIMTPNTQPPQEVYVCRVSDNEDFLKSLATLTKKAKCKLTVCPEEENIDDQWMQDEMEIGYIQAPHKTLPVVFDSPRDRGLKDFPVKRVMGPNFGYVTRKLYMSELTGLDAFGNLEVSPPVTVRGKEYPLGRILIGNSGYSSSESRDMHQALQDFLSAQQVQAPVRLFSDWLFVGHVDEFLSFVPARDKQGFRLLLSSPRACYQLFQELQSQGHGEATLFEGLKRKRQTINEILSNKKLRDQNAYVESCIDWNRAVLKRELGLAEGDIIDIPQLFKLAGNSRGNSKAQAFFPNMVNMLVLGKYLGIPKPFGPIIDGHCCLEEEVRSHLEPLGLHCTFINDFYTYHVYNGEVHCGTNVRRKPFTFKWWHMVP
- PROTOCOL_TEXT: ELISA, mouse PAD4 on plate, antibody 1 ug/mL
Below, each entry is listed alongside its reported absorbance 490 nm/630 nm.
ENDPOINT_LABEL: absorbance 490 nm/630 nm (OD)

{"columns": ["BINDER", "ENDPOINT_LABEL", "ENDPOINT_VALUE"],
 "data": [
  ["G6 (antibody, IgG1, V domains shown) VH: AVTLDESGGGLQTPGGALSLVCKASGFTFSSYGMEWVRQAPGKGLEYVAAIRNDGSWTGYGAAVKGRATISRDDGQSTLRLQLNNLRAEDTATYYCAKTTGSSGGSIDAWGHGTEVIVS VL: ASTQPSSVSANLGETVKITCSGGGNYYYGWYQQKSPGSAPVTLIYANDKRPSNIPSRFSGSKSGSTGTLTITGVQAEDEAVYFCGTADTGKYVFGAGTTLTVL", "absorbance 490 nm/630 nm", 2.27],
  ["H7 (antibody, IgG1, V domains shown) VH: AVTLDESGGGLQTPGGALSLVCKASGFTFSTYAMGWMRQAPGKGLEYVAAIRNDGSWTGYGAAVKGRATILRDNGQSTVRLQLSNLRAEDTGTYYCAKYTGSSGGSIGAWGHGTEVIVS VL: ASTQPSSVSANPGGTVEITCSGGSGRYYYGWYQQKSPGSAPVTVIYSSTHRPSNIPSRFSGSKSGSTATLTITGVQAEDEAVYFCGTADSSSYVFGAGTTLTVL", "absorbance 490 nm/630 nm", 2.3],
  ["G8 (antibody, IgG1, V domains shown) VH: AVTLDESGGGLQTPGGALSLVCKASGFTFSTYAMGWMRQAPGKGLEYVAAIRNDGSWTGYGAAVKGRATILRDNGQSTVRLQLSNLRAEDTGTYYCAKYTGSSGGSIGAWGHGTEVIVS VL: ASTQPSSVSANLGGTVEITCSGGNRNYYYGWYQQKSPGSAPVTLIYANDKRPSNIPSRFSGSKSGSTGTLTITGVQAEDEAVYFCGTADTGKYVFGAGTTLTVL", "absorbance 490 nm/630 nm", 2.26]
]}
